procedure.summary: NCI Yeast Anticancer Drug Screen. Data for the cln2 rad14 strain (AID 165)
experimental.conditions: S. cerevisiae cln2 rad14 strain; at 50.0 µM unless noted
Procedure: Growth inhibition of yeast strains with defined genetic alterations is measured as a screen for potential anti-cancer activity. Selected strains with alterations in DNA damage repair or cell cycle control were exposed to compounds and growth inhibition was measured relative to vehicle treated controls. The strain used in this assay is cln2 rad14
The panel holds about 79,000 compounds, 15% with a hit somewhere; the sample as a whole holds those more often. Activity calls are given as the source filed them. No stated cut-off is given here; in the data, active means growth inhibition above about 70%; inactive means the rest.
Labels: T (active), F (inactive)

{"columns": ["compound", "class.name"],
 "data": [
  ["CC(C)C(=O)OC1(CC2CCCCN2C)CCCCC1 (configuration not stated)", "F"],
  ["CC(=O)Oc1cc(C)c(OC(C)=O)c2ccccc12", "F"],
  ["Cc1cc(NC(=O)C(=O)Cc2nc3ccccc3s2)ccc1Cl", "F"],
  ["O=C1C=CC(=O)C(CNc2ccc(C(=O)OCc3ccccc3)cc2)=C1", "F"],
  ["N#CCc1nc(-c2cc3ccc(O)cc3oc2=O)cs1", "F"],
  ["Cc1nc(-c2cccnc2)sc1C(=O)CC(=O)C(=O)Nc1cccc(NC(=O)C(=O)CC(=O)c2sc(-c3cccnc3)nc2C)n1", "F"],
  ["CC1=Cc2cccc(C)c2C(=O)C1=O", "T"],
  ["O=C(NCCNC(=O)C(Br)(Br)Br)C(Br)(Br)Br", "F"],
  ["N#CCCC1(CCC#N)CCCC(CCC#N)(CCC#N)C1=O", "F"],
  ["NC(N)=N/N=C(/c1ccccc1)c1ccc(O)cc1O", "F"],
  ["CN(CCNC(=O)C1CCCCC1C(=O)O)c1ccccc1 (configuration not stated)", "F"],
  ["CCCCCCCCCCCCCCCCCCOc1ccccn1", "F"],
  ["CCC(O)C(C)(C)[N+](=O)[O-] (configuration not stated)", "F"],
  ["COc1cccc(C2c3cc4c(cc3OC(C)(O)C2C)OCO4)c1O (configuration not stated)", "F"],
  ["N#C/C(=C1/c2cc([N+](=O)[O-])ccc2-c2c1cc([N+](=O)[O-])cc2[N+](=O)[O-])N1CCCCC1", "F"],
  ["N/C1=C/C(=O)NC(=O)c2c(c3ccccc3oc2=O)C1", "F"],
  ["O=C(/C=C/c1ccc(O)c(O)c1)OC1CC(O)(C(=O)O)CC(O)C1O (configuration not stated) (tested in a mixture with another compound)", "F"],
  ["CC1Sc2ccccc2-c2[nH]c3ccccc3c21 (configuration not stated)", "F"],
  ["COc1ccccc1N=Nc1c(O)n(-c2ccccc2)c(=S)n(-c2ccccc2)c1=O", "F"],
  ["CC(C)N1C(=O)N(Cl)C2C1N(Cl)C(=O)N2Cl (configuration not stated)", "F"],
  ["O=C(CSc1nnc(-c2ccc(N=Cc3ccc(Cl)cc3)cc2)o1)Nc1cccc([N+](=O)[O-])c1", "F"],
  ["CN(C)Cc1ccccc1", "F"],
  ["NC(N)=NC(N)=Nc1cc(Cl)c(Cl)cc1Cl", "T"],
  ["COCNC(=S)c1ccc(C(N)=O)nc1C(=O)NC(C)(C)C", "F"],
  ["CCC(=O)OC(CCC1CCCO1)CCC1CCCO1 (configuration not stated)", "F"],
  ["CN1C(=O)N(C)C2(O)c3ccccc3C(=O)C12O (configuration not stated)", "F"],
  ["CNC(=O)C1C(=O)NC(=O)C1=C1CCCC1 (configuration not stated)", "F"],
  ["NC(C(=O)O)c1ccc(CBr)cc1 (configuration not stated)", "F"],
  ["CCOC(=O)c1cn[nH]c1C", "F"],
  ["O=C1C=C(c2ccccc2)C(c2ccccc2)/C1=N/O (configuration not stated)", "F"],
  ["CC/C=N\\N1C(N)=C(C#N)C(C#N)(C#N)C1CC (configuration not stated)", "F"],
  ["COc1cc(C(=O)N(C)C)cc(OC)c1OC", "F"],
  ["Nc1ccc(N=Nc2c(S(=O)(=O)O)cc3ccccc3c2S(=O)(=O)O)cc1", "F"],
  ["COc1ccc2c(O)c(Oc3ccccc3)c(=O)oc2c1", "F"],
  ["COc1ccc(C2c3cc(OC)c(OC)cc3C(Cc3ccc([N+](=O)[O-])cc3)C2c2ccc([N+](=O)[O-])cc2)cc1OC (configuration not stated)", "F"],
  ["CC(C)(C)C1CCC2(CC1)CCN(CCCN1CCOCC1)CC2", "T"],
  ["CN(Cc1ccc(Cl)cc1)N=Nc1ccc(C(=O)O)cc1", "F"],
  ["Cc1[nH]c(=O)nc2nc3ccc(Cl)cc3c(N(CCO)CCO)c12", "F"],
  ["OC/C(Br)=C(\\Br)CO", "F"],
  ["CC(=O)OC(C#N)c1ccco1 (configuration not stated)", "F"],
  ["O=[N+]([O-])c1ccn(Cc2ccccc2)c1", "F"],
  ["c1nc2c([nH]1)CCNC2c1ccc(C2NCCc3[nH]cnc32)cc1 (configuration not stated)", "F"],
  ["O=C(NC(=O)c1ccccc1)Oc1cccc2ccccc12", "F"],
  ["O=c1c2ccccc2[nH]c(=S)n1C1CCCC1", "F"],
  ["C=C(C)C1CCC2(C)C1CCC1(C)C2CCC2C3(C)C4OC(OC4=O)C(C)(C)C3CCC21C (configuration not stated)", "F"],
  ["COc1ccc(CC2c3cc(OC)c(OC)cc3CC[N+]2(C)C)cc1OC (configuration not stated)", "F"],
  ["Cc1ccc(S(=O)(=O)N(CC(=O)c2ccccc2)c2ccc(Br)cc2)cc1", "F"]
]}
